Recorded values, source PubChem BioAssay (NCATS).

System: PA-1
Assay: Primary qHTS to identify gynecologic anti-cancer compounds using libraries of approved drugs and bioactive compounds (AID 1345084); further: nearly all actives have a fitted effect of over 55% in size
Conditions: Gynecologic cancer cell panel viability, ATPlite luminescence, 48 h; series mostly up to 57.5 µM
Inconclusive results are not listed. Active and inactive are the calls of the source. The call rests on the fitted dose curve; in most records, active means well fitted cell-killing curve with a large enough effect; inconclusive means small, poorly fitted or top-dose-only effect, or effect the other way; inactive means flat fitted curve, though single readings scatter.
endpoint_label: activity change, negative = cytotoxicity

compound	activity change, negative = cytotoxicity
CC1C(=O)CC2C3C(O)CC(C(=O)O)C12CC3(C)C (stereo not given)	inactive
CC(=O)OCC(=O)O[C@@H]1[C@H]2[C@@H](OC(=O)c3ccccc3)[C@@H](C)C[C@]2(O)[C@H](OC(C)=O)C2(C)[C@H]3CC(C)(C)C(=O)[C@@H]3CC1(OC(C)=O)[C@@H]2OC(C)=O (stereo not given in full)	inactive
OCC1=CC[C@@H]2C=CO[C@@H](O[C@@H]3O[C@H](CO)[C@@H](O)[C@H](O)[C@H]3O)[C@H]12	inactive
CC1(C)CC[C@]2(C(=O)O)CC[C@]3(C)C(=CCC4[C@@]5(C)C[C@H](O)[C@H](O[C@@H]6OC[C@H](O)[C@H](O)[C@H]6O)[C@@](C)(CO)C5CC[C@]43C)[C@@H]2C1 (stereo not given in full)	inactive
C/C=C/C=C/C=C/C(=O)O[C@@H]1[C@@H](OC)C2=C(C(=O)N(C(C)C(=O)O)C2)[C@@]2(C)CCCC(C)(C)[C@H]12 (stereo not given in full)	inactive

Record CCCOc1ccn2c(C(C)=O)cc(-c3ccccc3S(C)(=O)=O)c2c1 , field activity change, negative = cytotoxicity: inactive

Record CC(=O)OC(C)OC(=O)C(C)c1ccc(-c2ccccc2)c(F)c1 (stereo not given) , field activity change, negative = cytotoxicity: inactive

Record CNC(=O)Nc1ccc(OC)c(NC(=O)NC(=O)c2cc(F)c(F)cc2Cl)c1 , field activity change, negative = cytotoxicity: inactive

Record C/C=C1\[C@H](O[C@@H]2O[C@H](CO)[C@@H](O)[C@H](O)[C@H]2O)OC=C(C(=O)OC)[C@H]1CC(=O)OC , field activity change, negative = cytotoxicity: inactive

Record CC(=O)O[C@@]1(C)C[C@@H](O)[C@]2(O)C=CO[C@@H](O[C@@H]3O[C@H](CO)[C@@H](O)[C@H](O)[C@H]3O)[C@@H]21 , field activity change, negative = cytotoxicity: inactive
